Target: T1, recombinant human vascular endothelial growth factor (hVEGF) 121 (human, UniProt P15692 27-147)
T1 construct: mature; also called human VEGF-A121; hVEGF 121 isoform
T1 sequence (looked up): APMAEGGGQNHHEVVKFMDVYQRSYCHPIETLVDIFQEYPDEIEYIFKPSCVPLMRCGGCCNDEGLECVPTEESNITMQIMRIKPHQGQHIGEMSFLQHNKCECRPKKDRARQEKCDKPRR
Experiment: competitive Fab-ELISA (hVEGF)
measure.name: Kd (nM)

>>> assay_result("FF0117-A3 (Fab, V domains shown, fourth generation Fab from the library based on FF0188-H5) VH: EVQLVESGGGLVQPGGSLRLSCAASGFDLFHYSIHWVRQAPGKGLEWVAYIYPSYGYTYYADSVKGRFTISADTSKNTAYLQMNSLRAEDTAVYYCARHAWYFGWALDYWGQGTLVTVSS VL: DIQMTQSPSSLSASVGDRVTITCRASQSVSSAVAWYQQKPGKAPKLLIYSASSLYSGVPSRFSGSRSGTDFTLTISSLQPEDFATYYCQQRGWYLFTFGQGTKVEIK")
0.06
